The values you see were collected from patent US20250340552A1.

Target: Cbl-B (Homo sapiens, UniProt Q13191)
Construct: MSD-Based Assay for Degradation of Cbl-B in THP-1 Cells; endogenous in cells; host or cells: THP-1 (title) / Jurkat (protocol text)
Sequence (Q13191 whole entry): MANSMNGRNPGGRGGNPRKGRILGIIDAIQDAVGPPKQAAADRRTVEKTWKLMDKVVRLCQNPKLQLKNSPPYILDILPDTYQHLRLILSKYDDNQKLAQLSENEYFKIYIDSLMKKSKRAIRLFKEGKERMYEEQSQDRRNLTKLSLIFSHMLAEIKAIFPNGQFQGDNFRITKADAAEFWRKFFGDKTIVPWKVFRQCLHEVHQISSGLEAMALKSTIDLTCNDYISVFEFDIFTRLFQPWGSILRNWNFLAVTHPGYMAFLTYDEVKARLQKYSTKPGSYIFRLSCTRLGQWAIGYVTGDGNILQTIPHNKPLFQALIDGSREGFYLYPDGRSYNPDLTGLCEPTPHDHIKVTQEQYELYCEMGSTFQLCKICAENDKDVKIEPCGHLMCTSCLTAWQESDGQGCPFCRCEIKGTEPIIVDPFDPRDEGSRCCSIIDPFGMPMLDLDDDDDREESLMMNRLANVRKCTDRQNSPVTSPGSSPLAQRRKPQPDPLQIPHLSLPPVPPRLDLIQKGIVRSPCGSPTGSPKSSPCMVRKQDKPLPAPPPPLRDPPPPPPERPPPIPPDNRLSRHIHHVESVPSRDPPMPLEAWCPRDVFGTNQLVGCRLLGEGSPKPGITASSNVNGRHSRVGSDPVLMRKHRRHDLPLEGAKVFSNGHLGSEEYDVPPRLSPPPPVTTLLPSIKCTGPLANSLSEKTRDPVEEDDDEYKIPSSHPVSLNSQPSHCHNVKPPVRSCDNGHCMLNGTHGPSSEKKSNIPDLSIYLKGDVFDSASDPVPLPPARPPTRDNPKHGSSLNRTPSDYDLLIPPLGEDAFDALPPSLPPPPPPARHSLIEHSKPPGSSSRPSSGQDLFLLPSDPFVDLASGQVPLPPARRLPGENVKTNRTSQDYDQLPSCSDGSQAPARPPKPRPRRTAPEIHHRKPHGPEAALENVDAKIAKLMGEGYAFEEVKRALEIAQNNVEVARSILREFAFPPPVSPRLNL
Assay: MSD-based assay for degradation of Cbl-B in THP-1 cells
Assay type: cell-based
Conditions: Cbl-B degradation, Jurkat cells seeded (heading: THP-1 cells), 24 hours incubation, MSD readout
METRIC_NAME: DC50

Solved cases below.
## Task Using the record for CN(CCN1CCC(CN2CCN(c3cc4c(cc3F)C(=O)N(C3CCC(=O)NC3=O)C4=O)CC2)CC1)Cc1cc(C(F)(F)F)c2cn(-c3cccc(C4(Cc5nncn5C)COC4)c3)c(=O)n2c1 (stereo not shown) , report its DC50.
## Result > 10 µM

## Task Request: Cn1cnnc1[C@@H](c1cccc(-n2cc3c(C(F)(F)F)cc(CN4CCC(CCN5CCC(CC6CCN(c7ccc8c(c7)CN([C@@H]7CCC(=O)NC7=O)C8=O)CC6)CC5)CC4)cn3c2=O)c1)C1CCC1
## Result > 10 µM

## Task Request: Cn1cnnc1[C@@H](c1cccc(-n2cc3c(C(F)(F)F)cc(CN4CCC[C@H](OCCc5ccc(CN6CCN(c7ccc8c(c7)CN([C@H]7CCC(=O)NC7=O)C8=O)CC6)cc5)C4)cn3c2=O)c1)C1CCC1 (single isomer, unassigned)
## Result < 0.03 µM

Now examine the next entry.
## Task Using the record for Cn1cnnc1[C@@H](c1cccc(-n2cc3c(C(F)(F)F)cc(CN4CCC(OCc5ccc(COCCNc6cccc7c6C(=O)N(C6CCC(=O)NC6=O)C7=O)cc5)CC4)cn3c2=O)c1)C1CCC1 (stereo partly shown) , report its DC50.
## Result 1 to 10 µM

###

Target: Cbl-B (Homo sapiens, UniProt Q13191)
Construct: MSD-Based Assay for Degradation of Cbl-B in THP-1 Cells; endogenous in cells; host or cells: THP-1 (title) / Jurkat (protocol text)
Assay: MSD-based assay for degradation of Cbl-B in THP-1 cells
Format: cell-based
Settings: Cbl-B degradation, Jurkat cells seeded (heading: THP-1 cells), 24 hours incubation, MSD readout
METRIC_NAME: DC50

## Task Using the record for Cn1cnnc1CC1(c2cccc(-n3cc4c(C(F)(F)F)cc(CN5CCC(OCc6ccc(CN7CCN(c8ccc9c(c8)CN([C@H]8CCC(=O)NC8=O)C9=O)CC7)cc6)CC5)cn4c3=O)c2)COC1 (single isomer, unassigned) [Compound 94] , report its DC50.
## Result < 30 nM

## Task Request: Cn1cnnc1CC1(c2cccc(-n3cc4c(C(F)(F)F)cc(CN5CCC(COCc6ccc(CN7CCN(c8ccc9c(c8)CN([C@@H]8CCC(=O)NC8=O)C9=O)CC7)cc6)CC5)cn4c3=O)c2)COC1 [Compound 215]
## Result 1000 to 10000 nM

## Task Request: Cn1cnnc1[C@@H](c1cccc(-n2cc3c(C(F)(F)F)cc(CN4CCC[C@@H](OCCc5ccc(CN6CCN(c7ccc8c(c7)CN([C@H]7CCC(=O)NC7=O)C8=O)CC6)cc5)C4)cn3c2=O)c1)C1CCC1 (single isomer, unassigned) [Compound 144]
## Result < 30 nM

Next:
## Task Using the record for Cn1cnnc1[C@@H](c1cccc(-n2cc3c(C(F)(F)F)cc(CN4CCC(OCCN5CCC(CN6CCN(c7ccc8c(c7)CN([C@@H]7CCC(=O)NC7=O)C8=O)CC6)CC5)CC4)cn3c2=O)c1)C1CCC1 (single isomer, unassigned) [Compound 48] , report its DC50.
## Result 300 to 1000 nM

## Task Request: CO[C@H]1C[C@](c2cccc(-n3cc4c(C(F)(F)F)cc(CN5CCC(OCCOCc6ccc(CN7CCN(c8ccc9c(c8)CN([C@@H]8CCC(=O)NC8=O)C9=O)CC7)cc6)CC5)cn4c3=O)c2)(c2nncn2C)C1 [Compound 221]
## Result 300 to 1000 nM

## Task Request: CN(CCOC1CCN(Cc2cc(C(F)(F)F)c3cn(-c4cccc([C@H](c5nncn5C)C5CCC5)c4)c(=O)n3c2)CC1)C(=O)c1ccc(N2CC3CC(C2)N3c2ccc3c(c2)CN([C@H]2CCC(=O)NC2=O)C3=O)cc1 (single isomer, unassigned) [Compound 90]
## Result 1000 to 10000 nM

## Task Request: Cn1cnnc1CC1(c2cccc(-n3cc4c(C(F)(F)F)cc(CN5CCC(OCCNc6cccc7c6C(=O)N(C6CCC(=O)NC6=O)C7=O)CC5)cn4c3=O)c2)COC1 (stereo not shown) [Compound 36]
## Result 1000 to 10000 nM

###

Reported Dmax values for the following compounds.
Target: Cbl-B (Homo sapiens, UniProt Q13191)
Construct: MSD-Based Assay for Degradation of Cbl-B in THP-1 Cells; endogenous in cells; host or cells: THP-1 (title) / Jurkat (protocol text)
Experiment: MSD-based assay for degradation of Cbl-B in THP-1 cells
Type: cell-based
Settings: THP-1

## Task Using the record for CN(CCOC1CCN(Cc2cc(C(F)(F)F)c3cn(-c4cccc([C@H](c5nncn5C)C5CCC5)c4)c(=O)n3c2)CC1)C(=O)c1ccc(N2C3CC2CN(c2ccc4c(c2)CN([C@@H]2CCC(=O)NC2=O)C4=O)C3)cc1 (single isomer, unassigned) , report its Dmax.
## Result 30 to 50%

## Task Request: Cn1cnnc1CC1(c2cccc(-n3cc4c(C(F)(F)F)cc(CN5CCC(CN6CCC(CN7CCN(c8ccc9c(c8)CN(C8CCC(=O)NC8=O)C9=O)CC7)CC6)CC5)cn4c3=O)c2)COC1 (centres unmarked)
## Result < 30%

## Task Request: Cn1cnnc1CC1(c2cccc(-n3cc4c(C(F)(F)F)cc(CN5CCC(C(=O)N6CCC(CN7CCN(c8ccc9c(c8)CN(C8CCC(=O)NC8=O)C9=O)CC7)CC6)CC5)cn4c3=O)c2)COC1 (centres unmarked)
## Result < 30%

## Task Request: CN(CCOC1CCN(Cc2cc(C(F)(F)F)c3cn(-c4cccc([C@H](c5nncn5C)C5CCC5)c4)c(=O)n3c2)CC1)C(=O)c1ccc(N2CC3CC(C2)N3c2ccc3c(c2)CN([C@@H]2CCC(=O)NC2=O)C3=O)cc1 (single isomer, unassigned)
## Result 30 to 50%

Now examine the next entry.
## Task Using the record for Cn1cnnc1CC1(c2cccc(-n3cc4c(C(F)(F)F)cc(CN5CCC(OCCN6CCN(CC7CCN(c8ccc9c(c8)CN([C@@H]8CCC(=O)NC8=O)C9=O)CC7)CC6)CC5)cn4c3=O)c2)COC1 (single isomer, unassigned) , report its Dmax.
## Result 30 to 50%

###

Reported DC50 values for the following molecules.
Target: Cbl-B (Homo sapiens, UniProt Q13191)
Construct: MSD-Based Assay for Degradation of Cbl-B in THP-1 Cells; endogenous in cells; host or cells: THP-1 (title) / Jurkat (protocol text)
Assay: MSD-based assay for degradation of Cbl-B in THP-1 cells
Type: cell-based
Settings: Cbl-B degradation, Jurkat cells seeded (heading: THP-1 cells), 24 hours incubation, MSD readout

Solved cases below.
## Task What measured DC50 is associated with CN(CCOC1CCN(Cc2cc(C(F)(F)F)c3cn(-c4cccc([C@H](c5nncn5C)C5CCC5)c4)c(=O)n3c2)CC1)C(=O)c1ccc(N2CCC(c3ccc4c(c3)CN([C@H]3CCC(=O)NC3=O)C4=O)CC2)cc1 on Cbl-B (Homo sapiens, UniProt Q13191)?
## Result < 30 nM

## Task Request: Cn1cnnc1CC1(c2cccc(-n3cc4c(C(F)(F)F)cc(CN5CCC[C@H](OCc6ccc(CN7CCN(c8ccc9c(c8)CN([C@H]8CCC(=O)NC8=O)C9=O)CC7)cc6)C5)cn4c3=O)c2)COC1 (single isomer, unassigned)
## Result 30 to 300 nM

## Task Request: Cn1cnnc1[C@@H](c1cccc(-n2cc3c(C(F)(F)F)cc(CN4CCN(CCc5ccc(C6CCN(c7ccc8c(c7)CN([C@H]7CCC(=O)NC7=O)C8=O)CC6)cc5)CC4)cn3c2=O)c1)C1CCC1 (single isomer, unassigned)
## Result < 30 nM

Now examine the next entry.
## Task What measured DC50 is associated with Cn1cnnc1[C@@H](c1cccc(-n2cc3c(C(F)(F)F)cc(COCCCN4CCC(CN5CCN(c6ccc7c(c6)CN([C@H]6CCC(=O)NC6=O)C7=O)CC5)CC4)cn3c2=O)c1)C1CCC1 on Cbl-B (Homo sapiens, UniProt Q13191)?
## Result > 10000 nM

###

Reported Dmax values for the following compounds.
Biological target: Cbl-B (Homo sapiens, UniProt Q13191)
Construct: MSD-Based Assay for Degradation of Cbl-B in THP-1 Cells; endogenous in cells; host or cells: THP-1 (title) / Jurkat (protocol text)
Experiment: MSD-based assay for degradation of Cbl-B in THP-1 cells
Type: cell-based
Conditions: Cbl-B degradation, Jurkat cells seeded (heading: THP-1 cells), 24 hours incubation, MSD readout; read-out: Dmax

Solved cases below.
## Task Using the record for Cn1cnnc1[C@@H](c1cccc(-n2cc3c(C(F)(F)F)cc(CN4CCC(OCCCN5CCN(c6ccc7c(c6)CN([C@H]6CCC(=O)NC6=O)C7=O)CC5)CC4)cn3c2=O)c1)C1CCC1 (single isomer, unassigned) [Compound 72] , report its Dmax.
## Result 30 to 50%

## Task Request: CN(CC1CCN(Cc2cc(C(F)(F)F)c3cn(-c4cccc(C5(Cc6nncn6C)COC5)c4)c(=O)n3c2)CC1)C(=O)c1ccc(C2CCN(c3ccc4c(c3)CN([C@@H]3CCC(=O)NC3=O)C4=O)CC2)cc1 [Compound 241]
## Result 50 to 70%

Now examine the next entry.
## Task Using the record for Cn1cnnc1[C@@H](c1cccc(-n2cc3c(C(F)(F)F)cc(CN4CCC(OCCN5CCC(CN6CCN(c7ccc8c(c7)CN([C@H]7CCC(=O)NC7=O)C8=O)CC6)CC5)CC4)cn3c2=O)c1)C1COC1 [Compound 58] , report its Dmax.
## Result > 70%
